// data source = patent US20180185504A1

target_desc: T1, mouse PRLR construct with an HA tag on HEK293/mPRLR cells (mouse, UniProt Q08501 20-608)
T1 construct: whole, on cells; stably transfected into HEK293
T1 sequence (looked up): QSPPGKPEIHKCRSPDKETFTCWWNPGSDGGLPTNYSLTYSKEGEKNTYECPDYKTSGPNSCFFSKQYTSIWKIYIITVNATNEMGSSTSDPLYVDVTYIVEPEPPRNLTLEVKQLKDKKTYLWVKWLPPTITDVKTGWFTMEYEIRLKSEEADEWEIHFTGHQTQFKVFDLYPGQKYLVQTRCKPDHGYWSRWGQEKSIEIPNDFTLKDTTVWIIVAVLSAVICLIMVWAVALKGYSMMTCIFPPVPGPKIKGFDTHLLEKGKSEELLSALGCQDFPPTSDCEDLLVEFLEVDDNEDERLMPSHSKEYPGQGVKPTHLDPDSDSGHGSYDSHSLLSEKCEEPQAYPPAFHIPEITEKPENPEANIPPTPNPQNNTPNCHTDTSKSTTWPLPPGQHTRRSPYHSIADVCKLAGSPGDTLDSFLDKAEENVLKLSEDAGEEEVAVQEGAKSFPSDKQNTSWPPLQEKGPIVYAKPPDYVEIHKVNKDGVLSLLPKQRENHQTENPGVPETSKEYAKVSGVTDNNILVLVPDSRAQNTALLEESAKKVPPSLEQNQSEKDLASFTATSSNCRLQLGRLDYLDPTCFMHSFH
assay: FACS on HEK293/mPRLR cells
metric: FACS Cell Binding (Fold Above Background) (fold)
Response body: numeric value in fold, unit text excluded.

Known FACS Cell Binding (Fold Above Background) results, listed for orientation:
| binder | unit_info | observed_measurement |
| --- | --- | --- |
| H1H6966N (antibody, human IgG1, V domains shown, also called H2M6966N) VH: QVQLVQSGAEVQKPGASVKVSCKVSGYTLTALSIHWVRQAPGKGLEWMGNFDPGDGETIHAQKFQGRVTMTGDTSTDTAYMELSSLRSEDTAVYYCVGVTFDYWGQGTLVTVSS VL: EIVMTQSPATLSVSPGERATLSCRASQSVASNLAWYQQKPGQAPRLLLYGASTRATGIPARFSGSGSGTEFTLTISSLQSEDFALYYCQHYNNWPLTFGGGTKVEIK | fold | 1 |
| H1H6793P (antibody, human IgG1, V domains shown, human IgG1 Fc (H1H)) VH: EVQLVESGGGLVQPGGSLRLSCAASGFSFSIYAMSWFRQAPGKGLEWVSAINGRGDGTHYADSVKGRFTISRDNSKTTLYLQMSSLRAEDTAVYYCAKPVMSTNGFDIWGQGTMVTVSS VL: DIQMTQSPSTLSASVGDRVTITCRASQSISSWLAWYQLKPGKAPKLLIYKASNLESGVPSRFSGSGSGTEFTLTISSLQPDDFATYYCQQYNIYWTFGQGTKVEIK | fold | 2 |

We now examine a further binder.
# binder H1H6958N2 (antibody, human IgG1, V domains shown, also called H2M6958N2) VH: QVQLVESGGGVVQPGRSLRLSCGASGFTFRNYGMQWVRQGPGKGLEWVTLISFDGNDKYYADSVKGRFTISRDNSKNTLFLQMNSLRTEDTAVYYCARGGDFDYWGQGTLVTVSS VL: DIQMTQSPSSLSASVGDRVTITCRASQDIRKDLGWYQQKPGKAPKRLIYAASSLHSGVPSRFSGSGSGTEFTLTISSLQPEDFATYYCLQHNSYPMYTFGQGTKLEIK ; its FACS Cell Binding (Fold Above Background) = 1
